# System: OVCAR-4 ovarian
# method notes: NCI tumour cell line growth inhibition, 48 h
reported metric: TGI (µM)
// units = µM; emit number, no label

Some solved cases for reference:
smiles representation: CC(C)(C)c1ccc2c(c1)OP1(Oc3c(Cl)cc(Cl)c4cccnc34)(O2)Oc2ccc(C(C)(C)C)cc2O1
unit name: µM
TGI: 23.3
--
smiles representation: Cc1cc(OCc2nnc3n2S(=O)(=O)c2ccccc2N3C)ccc1Cl
unit name: µM
TGI: 24.2
--
smiles representation: CCOC(=O)C1(C(=O)OCC)C(C(C)(C)C)=C(C)c2ccccc21
unit name: µM
TGI: 45.3

So what TGI did COc1cnc2c(c1)C(=O)c1c-2n(CCCN2CCCC2)c(=O)c2cc([N+](=O)[O-])ccc12 get with OVCAR-4 ovarian?
10.5

----------
Property: TGI; scope: individual molecules
# System: OVCAR-5 ovarian
# method notes: NCI tumour cell line growth inhibition, 48 h

molecule: CCOC(=O)C1(C(=O)OCC)C(C(C)(C)C)=C(C)c2ccccc21
value: 31.4 µM
//
molecule: COC(=O)C(Cc1c[nH]c2ccccc12)NC(=O)C(Cc1cnc[nH]1)NC(=O)C1CCC(=O)N1C(=O)OCc1ccccc1 (stereo unspecified)
value: > 100 µM
//
molecule: C#C[C@]1(O)CC[C@H]2[C@@H]3CCC4=C/C(=N\OCCN5CCCCC5)CC[C@]4(C)[C@H]3CC[C@@]21C
value: 28.1 µM
//
molecule: Nc1ncnc2c1ncn2[C@H]1C=C[C@@H](NO)C1
value: > 100 µM
//
molecule: CCOC(=O)c1c(N)sc2c1CC(C)CC2 (stereo unspecified)
value: > 100 µM
//
molecule: O=C(Nc1ccccc1)N(CCN(Cc1ccccc1)C(=O)Nc1ccccc1)CCN(Nc1ccccc1)C(=O)Nc1ccccc1
value: > 100 µM
//
molecule: CC(C)(C)c1ccc2c(c1)OP1(Oc3c(Cl)cc(Cl)c4cccnc34)(O2)Oc2ccc(C(C)(C)C)cc2O1
value: 27.5 µM
//
molecule: O=C1c2ccccc2N(O)C1(c1ccccc1)C1CCCC=C1N1CCOCC1 (stereo unspecified)
value: > 100 µM

Any idea what TGI was measured for O=C(c1c(F)c(F)c(F)c(F)c1F)c1c(F)c(F)c(F)c(F)c1F ?
3.65 µM

Any idea what TGI was measured for Cc1ccc(/C=C/C(=O)c2ccc(Cl)c(Cl)c2)cc1 ?
> 100 µM

Any idea what TGI was measured for NC1=Nc2ccccc2Sc2nncn21 ?
> 100 µM

Any idea what TGI was measured for Cc1nc(OCc2ccccc2)c2ncn(CCO)c2n1 ?
> 100 µM

Any idea what TGI was measured for CN1C(=O)CCC(N2C(=O)c3cccc(NCCOCCOCCNC(=O)c4cc5c(o4)C(=O)c4ccccc4C5=O)c3C2=O)C1=O (stereo unspecified) ?
3.17 µM

Any idea what TGI was measured for CC(C)C1CSC2N1C(=O)C2(OCc1ccccc1)C1CC1 (stereo unspecified) ?
> 100 µM

----------
Property: GI50; scope: individual compounds
# Tested on: SF-295 CNS
# method notes: NCI tumour cell line growth inhibition, 48 h

Some solved cases for reference:
compound: C=C(C)[C@@H]1CC[C@]2(CO)CC[C@]3(C)[C@H](CC[C@@H]4[C@@]5(C)CCCNC(C)(C)[C@@H]5CC[C@]43C)[C@@H]12
target: SF-295 CNS
GI50: 1.66 µM

compound: O=C1c2c(c(=O)[nH]c3ccccc23)[C@H](c2ccccc2)[C@@H]2CCCN12
target: SF-295 CNS
GI50: 8.72 µM

compound: CSc1ccc(C2=NN(C(C)=O)C(c3ccc(-c4cc(Cl)c(Cl)cc4Cl)o3)C2)cc1 (stereo unspecified)
target: SF-295 CNS
GI50: 18.3 µM

compound: O=c1cc(-c2ccc(F)cc2)[nH]c2ncccc12
target: SF-295 CNS
GI50: 50 µM

compound: CCN(CC)CCN(CC)CC.CCN(CC)CCN(CC)CC.[Cu+2].[Cu+2].[O-][Cl+3]([O-])([O-])[O-].[OH3+].[OH3+]
target: SF-295 CNS
GI50: 34.4 µM

Kindly review the next compound as well.
So what GI50 did COc1ccc(-c2ncnc3c2ncn3CC#CCCl)cc1 get with SF-295 CNS?
2.35 µM
